Where do these numbers come from? They come from paper PMC9247344.

experiment: Cytotoxicity against HepG2; assay type: cell-based, human; conditions: human, HepG2 cells
Item-by-item account of CC50 at 72 h
Recorded Metric: CC50 at 72 h (µM)

compound="C[C@H]1[C@H](OC(=O)CCC(=O)O)O[C@@H]2O[C@@]3(C)CC[C@H]4[C@H](C)CC[C@@H]1[C@@]24OO3 [artesunate]" recorded_metric="CC50 at 72 h" value_unit=µM inequality_symbol== result=3.55
compound="C[C@H]1[C@@H](O)O[C@@H]2O[C@@]3(C)CC[C@H]4[C@H](C)CC[C@@H]1[C@@]24OO3 [DHA, dihydroartemisinin]" recorded_metric="CC50 at 72 h" value_unit=µM inequality_symbol=> result=8.51
compound=COc1ccc(C[C@H](N)C(=O)N[C@H]2[C@@H](O)[C@H](n3cnc4c(N(C)C)ncnc43)O[C@@H]2CO)cc1 recorded_metric="CC50 at 72 h" value_unit=µM inequality_symbol== result=0.407
compound=C[C@@H]1CC[C@H]2[C@@H](C)C(=O)O[C@@H]3O[C@@]4(C)CC[C@@H]1[C@]32OO4 recorded_metric="CC50 at 72 h" value_unit=µM inequality_symbol=> result=10
